tested on: Human immunodeficiency virus 1; assay: Antiviral activity against HIV1 isolate NL4-3 harboring reverse transcriptase K103N/Y181C/G190A mutant assessed as inhibition of viral replication by phenoscreen assay in presence of 40% normal human serum; type: functional, organism-based; settings: Human immunodeficiency virus 1, isolate NL4-3
Assay endpoint: IC50

* N#Cc1cc(Cl)cc(Oc2cc(OCc3cc(-c4ccncc4)[nH]n3)ccc2Cl)c1 | > 1000 nM

* * *

target: Human immunodeficiency virus type 1 reverse transcriptase (Human immunodeficiency virus 1)
pKi: −log10 of the molar value.
Listed compounds paired with reported pKi
Assay endpoint: pKi

• COc1ccc(-c2nnc(COc3ccc(Cl)c(Oc4cc(Cl)cc(C#N)c4)c3)o2)cc1 = 8.28
• N#Cc1cc(Cl)cc(Oc2cc(OCc3cc(-c4ccccc4)[nH]n3)ccc2Cl)c1 = 9.05
• COc1ccc(-c2noc(COc3ccc(Cl)c(Oc4cc(Cl)cc(C#N)c4)c3)n2)cc1 = 8.68
• N#Cc1cc(Cl)cc(Oc2cc(OCc3cc(-c4cc[n+]([O-])cc4)[nH]n3)ccc2Cl)c1 = 8.28

* * *

target: Human immunodeficiency virus type 1 reverse transcriptase (Human immunodeficiency virus 1, UniProt Q72547, K103N); test: Inhibition of HIV1 reverse transcriptase K103N mutant by SPA assay
pKi: −log10 of the molar value.
Listed compounds paired with reported pKi
Assay endpoint: pKi

* N#Cc1cc(Cl)cc(Oc2cc(OCc3cc(-c4ccco4)[nH]n3)ccc2Cl)c1 | 8.00
* N#Cc1cc(Cl)cc(Oc2cc(OCc3nc(-c4ccccn4)no3)ccc2Cl)c1 | 7.16
* N#Cc1cc(Cl)cc(Oc2cc(OCc3cc(-c4ccccc4)[nH]n3)ccc2Cl)c1 | 8.62
* COc1ccc(-c2noc(COc3ccc(Cl)c(Oc4cc(Cl)cc(C#N)c4)c3)n2)cc1 | 7.52
* N#Cc1cc(Cl)cc(Oc2cc(OCc3nnc(-c4ccc(Cl)cc4)o3)ccc2Cl)c1 | 7.96

* * *

system: Human immunodeficiency virus 1; test: Antiviral activity against HIV1 isolate NL4-3 harboring reverse transcriptase G190A mutant assessed as inhibition of viral replication by phenoscreen assay in presence of 40% normal human serum; format: functional, organism-based; conditions: Human immunodeficiency virus 1, isolate NL4-3
pIC50: −log10 of the molar value.
Assay endpoint: pIC50

• N#Cc1cc(Cl)cc(Oc2cc(OCc3cc(-c4ccncc4)[nH]n3)ccc2Cl)c1 = 7.65

* * *

# collection of Ki values tested on Human immunodeficiency virus type 1 reverse transcriptase (Human immunodeficiency virus 1)
Assay endpoint: Ki (nM)

- N#Cc1cc(Cl)cc(Oc2cc(OCc3n[nH]cc3-c3ccccc3)ccc2Cl)c1: 460
- N#Cc1ccc(-c2cc(COc3ccc(Cl)c(Oc4cc(Cl)cc(C#N)c4)c3)n[nH]2)cc1: 0.7
- N#Cc1cc(Cl)cc(Oc2cc(OCc3cc(-c4ccccc4)on3)ccc2Cl)c1: 2.6
- N#Cc1cc(Cl)cc(Oc2cc(OCc3nc(-c4ccccn4)no3)ccc2Cl)c1: 29
- N#Cc1cc(Cl)cc(Oc2cc(OCc3nc(-c4ccccc4)no3)ccc2Cl)c1: 15
- Cn1cc(-c2cc(COc3ccc(Cl)c(Oc4cc(Cl)cc(C#N)c4)c3)n[nH]2)cn1: 0.7
- N#Cc1cc(Cl)cc(Oc2cc(OCc3nnc(-c4ccc(Cl)cc4)o3)ccc2Cl)c1: 4.9
- N#Cc1cc(Cl)cc(Oc2cc(OCc3cc[nH]n3)ccc2Cl)c1: 39
- N#Cc1cc(Cl)cc(Oc2cc(OCc3n[nH]c(-c4ccncc4)c3Cl)ccc2Cl)c1: 0.5
- N#Cc1cc(Cl)cc(Oc2cc(OCc3ncc(-c4ccc(Cl)cc4)o3)ccc2Cl)c1: 2.1
- N#Cc1cc(Cl)cc(Oc2cc(OCc3cc(-c4ccncc4)[nH]n3)ccc2Cl)c1: 0.7
- N#Cc1cc(Cl)cc(Oc2cc(OCc3cc(-c4ccco4)[nH]n3)ccc2Cl)c1: 0.3
- N#Cc1cc(Cl)cc(Oc2cc(OCc3cc(-c4cccs4)[nH]n3)ccc2Cl)c1: 1.6
- N#Cc1cc(Cl)cc(Oc2cc(OCc3cc(-c4cccnc4)[nH]n3)ccc2Cl)c1: 1.1
- N#Cc1cc(Cl)cc(Oc2cc(OCc3cc(-c4ccccc4)no3)ccc2Cl)c1: 31
- N#Cc1cc(Cl)cc(Oc2cc(OCc3cn(-c4ccccc4)nn3)ccc2Cl)c1: 68
- N#Cc1cc(Cl)cc(Oc2cc(OCc3n[nH]c(-c4ccccn4)c3Cl)ccc2Cl)c1: 0.4
- N#Cc1cc(Cl)cc(Oc2cc(OCc3n[nH]c(-c4ccc(-c5nnn[nH]5)cc4)c3Cl)ccc2Cl)c1: 0.3
- N#Cc1cc(Cl)cc(Oc2cc(OCc3cc(-c4ccccn4)[nH]n3)ccc2Cl)c1: 3.2
- N#Cc1cc(Cl)cc(Oc2cc(OCc3nc(-c4ccc(Cl)cc4)no3)ccc2Cl)c1: 31

* * *

Listed compounds paired with reported Ki
target: Human immunodeficiency virus type 1 reverse transcriptase (Human immunodeficiency virus 1, UniProt Q72547, Y181C); test: Inhibition of HIV1 reverse transcriptase Y181C mutant by electrochemiluminescent assay
Assay endpoint: Ki (nM)

* Cn1cc(-c2cc(COc3ccc(Cl)c(Oc4cc(Cl)cc(C#N)c4)c3)n[nH]2)cn1 | 3
* N#Cc1ccc(-c2cc(COc3ccc(Cl)c(Oc4cc(Cl)cc(C#N)c4)c3)n[nH]2)cc1 | 12
* N#Cc1cc(Cl)cc(Oc2cc(OCc3n[nH]c(-c4ccncc4)c3Cl)ccc2Cl)c1 | 0.5
* N#Cc1cc(Cl)cc(Oc2cc(OCc3n[nH]c(-c4ccccn4)c3Cl)ccc2Cl)c1 | 0.6
* N#Cc1cc(Cl)cc(Oc2cc(OCc3n[nH]c(-c4ccc(-c5nnn[nH]5)cc4)c3Cl)ccc2Cl)c1 | 0.6

* * *

system: Human immunodeficiency virus 1; experiment: Antiviral activity against HIV1 isolate NL4-3 harboring reverse transcriptase K103N/P225H double mutant assessed as inhibition of viral replication by phenoscreen assay in presence of 40% normal human serum; format: functional, organism-based; conditions: Human immunodeficiency virus 1, isolate NL4-3
Assay endpoint: IC50 (nM)

* N#Cc1cc(Cl)cc(Oc2cc(OCc3cc(-c4ccncc4)[nH]n3)ccc2Cl)c1 | 32.4

* * *

biological target: Human immunodeficiency virus type 1 reverse transcriptase (Human immunodeficiency virus 1, UniProt Q72547, Y181C); assay: Inhibition of HIV1 reverse transcriptase Y181C mutant by SPA assay
pKi: −log10 of the molar value.
# if value of pKi reaches 7, tag Yes; if it stays below, tag No

- N#Cc1cc(Cl)cc(Oc2cc(OCc3cc(-c4ccccc4)[nH]n3)ccc2Cl)c1: Yes
- N#Cc1cc(Cl)cc(Oc2cc(OCc3cc(-c4ccco4)[nH]n3)ccc2Cl)c1: Yes
- N#Cc1cc(Cl)cc(Oc2cc(OCc3cc(-c4ccccc4)on3)ccc2Cl)c1: Yes
- N#Cc1cc(Cl)cc(Oc2cc(OCc3cc(-c4ccccc4)no3)ccc2Cl)c1: No
- N#Cc1cc(Cl)cc(Oc2cc(OCc3cc(-c4cccs4)[nH]n3)ccc2Cl)c1: Yes
- N#Cc1cc(Cl)cc(Oc2cc(OCc3cc(-c4cc[n+]([O-])cc4)[nH]n3)ccc2Cl)c1: Yes
- N#Cc1cc(Cl)cc(Oc2cc(OCc3n[nH]cc3-c3ccccc3)ccc2Cl)c1: No
- N#Cc1cc(Cl)cc(Oc2cc(OCc3cc(-c4ccncc4)[nH]n3)ccc2Cl)c1: Yes
- N#Cc1cc(Cl)cc(Oc2cc(OCc3cc(-c4cccnc4)[nH]n3)ccc2Cl)c1: Yes
- N#Cc1cc(Cl)cc(Oc2cc(OCc3cc(-c4ccccn4)[nH]n3)ccc2Cl)c1: Yes

* * *

molecular target: Human immunodeficiency virus type 1 reverse transcriptase (Human immunodeficiency virus 1, UniProt Q72547, K103N); test: Inhibition of HIV1 reverse transcriptase K103N mutant by SPA assay
The recorded Ki of each item maps onto one of these classes: lower bin: < 4 nM; middle bin: ≥ 4 nM and < 20 nM; upper bin: ≥ 20 nM

• N#Cc1cc(Cl)cc(Oc2cc(OCc3nc(-c4ccc(Cl)cc4)no3)ccc2Cl)c1 = upper bin
• N#Cc1cc(Cl)cc(Oc2cc(OCc3cc(-c4cccnc4)[nH]n3)ccc2Cl)c1 = middle bin
• N#Cc1cc(Cl)cc(Oc2cc(OCc3cc(-c4ccccn4)[nH]n3)ccc2Cl)c1 = middle bin
• N#Cc1cc(Cl)cc(Oc2cc(OCc3cc(-c4ccccc4)on3)ccc2Cl)c1 = middle bin
• N#Cc1cc(Cl)cc(Oc2cc(OCc3ncc(-c4ccc(Cl)cc4)o3)ccc2Cl)c1 = middle bin
• N#Cc1cc(Cl)cc(Oc2cc(OCc3n[nH]c(-c4ccccn4)c3Cl)ccc2Cl)c1 = lower bin
• N#Cc1cc(Cl)cc(Oc2cc(OCc3cc[nH]n3)ccc2Cl)c1 = upper bin
• N#Cc1cc(Cl)cc(Oc2cc(OCc3n[nH]c(-c4ccncc4)c3Cl)ccc2Cl)c1 = lower bin
• N#Cc1cc(Cl)cc(Oc2cc(OCc3n[nH]cc3-c3ccccc3)ccc2Cl)c1 = upper bin
• N#Cc1cc(Cl)cc(Oc2cc(OCc3cn(-c4ccccc4)nn3)ccc2Cl)c1 = upper bin
• N#Cc1cc(Cl)cc(Oc2cc(OCc3n[nH]c(-c4ccc(-c5nnn[nH]5)cc4)c3Cl)ccc2Cl)c1 = lower bin
• COc1ccc(-c2nnc(COc3ccc(Cl)c(Oc4cc(Cl)cc(C#N)c4)c3)o2)cc1 = middle bin
• N#Cc1cc(Cl)cc(Oc2cc(OCc3cc(-c4cccs4)[nH]n3)ccc2Cl)c1 = middle bin
• N#Cc1cc(Cl)cc(Oc2cc(OCc3cc(-c4ccccc4)no3)ccc2Cl)c1 = upper bin
• N#Cc1cc(Cl)cc(Oc2cc(OCc3cc(-c4ccncc4)[nH]n3)ccc2Cl)c1 = middle bin
• N#Cc1cc(Cl)cc(Oc2cc(OCc3nc(-c4ccccc4)no3)ccc2Cl)c1 = upper bin
• N#Cc1cc(Cl)cc(Oc2cc(OCc3cc(-c4cc[n+]([O-])cc4)[nH]n3)ccc2Cl)c1 = upper bin
• Cn1cc(-c2cc(COc3ccc(Cl)c(Oc4cc(Cl)cc(C#N)c4)c3)n[nH]2)cn1 = middle bin
• N#Cc1ccc(-c2cc(COc3ccc(Cl)c(Oc4cc(Cl)cc(C#N)c4)c3)n[nH]2)cc1 = lower bin
